- Tested on: LO2 (human normal liver cells)
- assay comment: MTT cytotoxicity assay
- Assay type: cell-based
- test settings: 48 h incubation, mean ± SD
pIC50: −log10 of the molar value.
Below is a list of entries, each paired with its recorded pIC50 value.

compound	operator	pIC50
F[P-](F)(F)(F)(F)F.F[P-](F)(F)(F)(F)F.F[P-](F)(F)(F)(F)F.[C-]#[O+].[C-]#[O+].[C-]#[O+].[Re+].[Ru+2].c1ccc(-c2ccnc3c2ccc2c(-c4ccccc4)ccnc23)cc1.c1cnc2c(c1)c1nc(-c3ccncc3)[nH]c1c1cccnc12.c1cnc2c(c1)ccc1cccnc12.c1cnc2c(c1)ccc1cccnc12 [RuRe-2, [Ru(phen)2LRe(CO)3(DIP)](PF6)3]	=	4.55
F[P-](F)(F)(F)(F)F.F[P-](F)(F)(F)(F)F.[Ru+2].c1ccc(-c2ccccn2)nc1.c1ccc(-c2ccccn2)nc1.c1cnc2c(c1)c1nc(-c3ccncc3)[nH]c1c1cccnc12 [Ru-1, reference compound]	<	4.30
N.N.[Cl][Pt][Cl] [Cisplatin, reference compound]	=	4.65

---

pIC50: recorded values
- Tested on: LO2 (human normal liver cells)
- assay comment: MTT cytotoxicity assay
- Format: cell-based
- test settings: 48 h incubation, mean ± SD
pIC50: −log10 of the molar value.
measurement kind: pIC50

molecule	operator	reported measurement
F[P-](F)(F)(F)(F)F.F[P-](F)(F)(F)(F)F.F[P-](F)(F)(F)(F)F.[C-]#[O+].[C-]#[O+].[C-]#[O+].[Re+].[Ru+2].c1ccc(-c2ccccn2)nc1.c1ccc(-c2ccccn2)nc1.c1ccc(-c2ccnc3c2ccc2c(-c4ccccc4)ccnc23)cc1.c1cnc2c(c1)c1nc(-c3ccncc3)[nH]c1c1cccnc12 [RuRe-1, [Ru(bpy)2LRe(CO)3(DIP)](PF6)3]	=	4.60
F[P-](F)(F)(F)(F)F.F[P-](F)(F)(F)(F)F.c1cc2ccc3ccc[n+]4c3c2[n+](c1)[Ru-4]412([n+]3cccc4ccc5ccc[n+]1c5c43)[n+]1cccc3c4nc(-c5ccncc5)[nH]c4c4ccc[n+]2c4c31	<	4.30
